- assayTarget: PI5P4Kα (Homo sapiens)
- Sequence (P48426 1-406): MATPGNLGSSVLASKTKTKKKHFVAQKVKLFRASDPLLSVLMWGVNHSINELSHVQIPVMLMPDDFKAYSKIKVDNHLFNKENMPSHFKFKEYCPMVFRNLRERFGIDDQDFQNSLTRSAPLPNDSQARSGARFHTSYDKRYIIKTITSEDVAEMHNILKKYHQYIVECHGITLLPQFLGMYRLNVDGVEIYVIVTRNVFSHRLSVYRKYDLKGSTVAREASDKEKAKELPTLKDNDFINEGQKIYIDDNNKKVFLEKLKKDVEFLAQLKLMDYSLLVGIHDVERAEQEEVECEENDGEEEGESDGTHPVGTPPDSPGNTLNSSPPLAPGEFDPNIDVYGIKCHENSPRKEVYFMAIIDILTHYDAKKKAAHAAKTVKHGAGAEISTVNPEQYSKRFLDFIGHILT
parameter: pKi
Just the number, please; pKi means minus log10 of the concentration in mol/L.

Query: Give the value of pKi reported for the following: COc1cc(/C=C(\C#N)C(=O)c2ccc(O)c(O)c2)cc(I)c1O
Reply: 6.30

====

# IC50 annotations
- assayTarget: PI5P4Kα (Homo sapiens, UniProt P48426)
- Construct: made in house
- assayDetails: Miniaturized 1536-well luciferase-coupled bioluminescence (ADP-Glo) PI5P4Kα enzyme activity assay
- Assay type: biochemical
- assayContext: LOPAC1280 qHTS pilot screen, 5 µM ATP, 75 µM PI5P, 5% DMSO
- Protocol: PI5P4Kα (52.4 µL) was added to the lipid reagent (3 mL, described above) to form the enzyme-lipid mixture. […] The luminescence was then read with a ViewLux high-throughput CCD imager (Perkin Elmer, Waltham, MA, USA). […] Screening data were corrected and normalized, and concentration-response curves were derived using in-house algorithms. Overall assay performance, including trends in Z’ factor, % CV, and S/B, were recorded. […]
I only need the number, in µM, no unit after it.

The following compounds have reported results that may help.
COc1cc2ncnc(Nc3cccc(Cl)c3)c2cc1OC ... 100
N#C/C(=C\c1c[nH]c2ccccc12)C(=O)c1ccc(O)c(O)c1 ... 18
N#C/C(=C\c1ccc(O)c(O)c1)C(=O)NCCCNC(=O)/C(C#N)=C/c1ccc(O)c(O)c1 ... 32
N#C/C(=C\c1ccc(O)c(O)c1)C(=O)NCc1ccccc1 ... 89
N#C/C(=C\c1ccc(O)c(O)c1)C(=O)c1ccc(O)c(O)c1 ... 14

Query: Give the value of IC50 reported for the following: N#C/C(=C\c1ccc(O)c(O)c1)C(=O)NCCCc1ccccc1
Reply: 50

Query: Give the value of IC50 reported for the following: N#CC(C#N)=Cc1ccc(O)c(O)c1
Reply: 45

Query: Give the value of IC50 reported for the following: N#C/C(=C\c1ccc(O)c(O)c1)C(=O)Nc1ccccc1
Reply: 89

Query: Give the value of IC50 reported for the following: N#CC(C#N)=C(N)/C(C#N)=C/c1cc(O)c(O)c(O)c1
Reply: 5

Query: Give the value of IC50 reported for the following: N#CC(C#N)=Cc1cc(O)c(O)c(O)c1
Reply: 93

Query: Give the value of IC50 reported for the following: N#C/C(=C\c1ccc(O)c(O)c1)C(N)=S
Reply: 20

====

- assayTarget: PI5P4Kα (Homo sapiens, UniProt P48426)
- Construct: made in house
- assayDetails: Miniaturized 1536-well luciferase-coupled bioluminescence (ADP-Glo) PI5P4Kα enzyme activity assay
- Assay type: biochemical
- assayContext: weak inhibitors, ADP-Glo assay
pIC50: −log10 of the molar value.
parameter: pIC50

CCCCCCCC/C=C\CCCCCCCC(=O)N[C@@H](CO)Cc1ccc(O)cc1 [OMDM-2, (R)-N-oleoyl Tyrosinol] ... ~4.52

Next item in the queue.
Query: Give the value of pIC50 reported for the following: CCCCCCCC/C=C\CCCCCCCC(N)=O [oleamide]
Reply: ~4.52

The measurements presented in this section are drawn from paper PMC3542272.
